Answer each item with its documented IC50.
# Assayed System: UniProt:P45452
# Assay Comment: MMP activity assay (fluorogenic substrate), MMP13 catalytic domain
# Assay type: biochemical
# Assay Conditions: Table 2; read-out: MMP13 IC50
Answers are plain numbers, in µM.

CCOC(=O)c1csc(CN(Cc2ccc(F)cc2)Cc2ccc(-c3ccccc3)cc2)n1 = 31
O=C(O)c1csc(CN(Cc2ccc(OCc3ccccc3)cc2)Cc2cccc(F)c2)n1 = 4.7
CCOC(=O)c1csc(CN(Cc2ccc(OCc3ccncc3)cc2)Cc2cccnc2)n1 = 19

Ask: Query (compound): `CCOC(=O)c1csc(CN(Cc2ccc(OCc3ccccc3)cc2)Cc2cccnc2)n1` ; field requested: IC50
Result: 5
